Measured median [+ligand]/median [w/o ligand]*100 of individual entries
- targetDesc: human FLT3 on transfected CHO cells (human) (UniProt P36888)
- runDescription: FACS, scFv on CHO-human FLT3 cells pre-incubated with FLT3 ligand (competitor)

{"columns": ["binder", "median [+ligand]/median [w/o ligand]*100"],
 "data": [
  ["FL-59 (scFv) scFv: QVTLKESGPMLVKPTETLTLTCTVSGFSLRNVRMGVSWIRQPPGKALEWLAHIFSNDEKSYSTSLKSRLTISKDTSKSQVVLTLTNMDPVDTATYFCARMPEYSSGWSGAFDIWGQGTMVTVSSGGGGSGGGGSGGGGSDIQMTQSPSSLSASVGDRVTITCRASQDIRDDLGWYQQKPGNAPKRLIYGASTLQSGVPSRFSGSGSGTEFTLTISSLQPEDFATYYCLQHNSYPLTFGGGTRLEIK", "> 75%"]
]}

Here's the next entry for you.
Input: Bench note: what median [+ligand]/median [w/o ligand]*100 did FL-27 (scFv) scFv: QVTLKESGPVLVKPTETLTLTCTVSGFSFRNARMGVSWIRQPPGKALEWLAHIFSNDEKSYSTSLKSRLTISKDTSKSQVVLTLTNMDPVDTATYFCARMPEYSSGWSGAFDIWGQGTMVTVSSGGGGSGGGGSGGGGSDIQMTQSPSSLSASVGDRVTITCRTSQGIRNDLVWYQQKPGKAPKRLIYAASTLQSGVPSRFSGSGSGTEFTLTISSLQPEDFATYFCLQHYSYPLTFGGGTKVEIK show?
Output: > 75%

Measured values drawn from patent US20230272113A1 for this set.
